# aptazyme ON/OFF ratio listing for each entry below
B1: Pistol ribozyme (parent)
chain: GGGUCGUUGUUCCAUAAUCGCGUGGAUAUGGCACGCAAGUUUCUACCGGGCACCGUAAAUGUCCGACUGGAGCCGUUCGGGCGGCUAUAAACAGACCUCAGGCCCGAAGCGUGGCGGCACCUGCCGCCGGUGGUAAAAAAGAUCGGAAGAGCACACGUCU

# Variants of: B1
# METHOD DESCRIPTION: aptazyme ON/OFF ratio, guanine; higher = stronger switching; co-transcriptional cleavage with and without guanine
Lab note: record just the number, no unit beside it.

The examples below pair each entry with its known result.
U7C U8A G9A U10A C12U C13U :: 1.28
U7A U8A G9A U11A C12U C13U :: 1.22

Pending variant:
Entry under test: U7C U10G U11A C12U C13U . Its aptazyme ON/OFF ratio was 1.22

Source of measurements: the RNAGym collection of RNA variant scans (doi:10.1021/acssynbio.7b00057)
